- System: HeLa Kyoto
- assay.text: thermal stability score vs G1/S (z-score of summed log2 fold changes over temperatures); higher = more thermally stable than in G1/S
- condition.summary: cell cycle stage: mitosis
measured.quantity: thermal stability score

MPAHLLQDDISSSYTTTTTITAPPSRVLQNGGDKLETMPLYLEDDIRPDIKDDIYDPTYKDKEGPSPKVEYVWRNIILMSLLHLGALYGITLIPTCKFYTWLWGVFYYFVSALGITAGAHRLWSHRSYKARLPLRLFLIIANTMAFQNDVYEWARDHRAHHKFSETHADPHNSRRGFFFSHVGWLLVRKHPAVKEKGSTLDLSDLEAEKLVMFQRRYYKPGLLMMCFILPTLVPWYFWGETFQNSVFVATFLRYAVVLNATWLVNSAAHLFGYRPYDKNISPRENILVSLGAVGEGFHNYHHSFPYDYSASEYRWHINFTTFFIDCMAALGLAYDRKKVSKAAILARIKRTGDGNYKSG [SCD] : -0.899
MSGLRVYSTSVTGSREIKSQQSEVTRILDGKRIQYQLVDISQDNALRDEMRALAGNPKATPPQIVNGDQYCGDYELFVEAVEQNTLQEFLKLA [SH3BGRL3] : -3.11
MPLLTQQIQDEDDQYSLVASLDNVRNLSTILKAIHFREHATCFATKNGIKVTVENAKCVQANAFIQAGIFQEFKVQEESVTFRINLTVLLDCLSIFGSSPMPGTLTALRMCYQGYGYPLMLFLEEGGVVTVCKINTQEPEETLDFDFCSTNVINKIILQSEGLREAFSELDMTSEVLQITMSPDKPYFRLSTFGNAGSSHLDYPKDSDLMEAFHCNQTQVNRYKISLLKPSTKALVLSCKVSIRTDNRGFLSLQYMIRNEDGQICFVEYYCCPDEEVPESES [RAD1] : 0.628
MTRHGKNCTAGAVYTYHEKKKDTAASGYGTQNIRLSRDAVKDFDCCCLSLQPCHDPVVTPDGYLYEREAILEYILHQKKEIARQMKAYEKQRGTRREEQKELQRAASQDHVRGFLEKESAIVSRPLNPFTAKALSGTSPDDVQPGPSVGPPSKDKDKVLPSFWIPSLTPEAKATKLEKPSRTVTCPMSGKPLRMSDLTPVHFTPLDSSVDRVGLITRSERYVCAVTRDSLSNATPCAVLRPSGAVVTLECVEKLIRKDMVDPVTGDKLTDRDIIVLQRGGTGFAGSGVKLQAEKSRPVMQA [NOSIP] : 6.51
MYYKFSGFTQKLAGAWASEAYSPQGLKPVVSTEAPPIIFATPTKLTSDSTVYDYAGKNKVPELQKFFQKADGVPVYLKRGLPDQMLYRTTMALTVGGTIYCLIALYMASQPKNK [COX7A2L] : -1.52
MPVKGGTKCIKYLLFGFNFIFWLAGIAVLAIGLWLRFDSQTKSIFEQETNNNNSSFYTGVYILIGAGALMMLVGFLGCCGAVQESQCMLGLFFGFLLVIFAIEIAAAIWGYSHKDEVIKEVQEFYKDTYNKLKTKDEPQRETLKAIHYALNCCGLAGGVEQFISDICPKKDVLETFTVKSCPDAIKEVFDNKFHIIGAVGIGIAVVMIFGMIFSMILCCAIRRNREMV [CD9] : 0.357

---

- System: HeLa Kyoto;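 also: synchronized HeLa Kyoto cells, proteins quantified by TMT10plex mass spectrometry, three biological replicates, mitosis taken 0.5 h after nocodazole release, G1/S directly after double thymidine block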
- assay.text: thermal stability score vs G1/S (z-score of summed log2 fold changes over temperatures); higher = more thermally stable than in G1/S
- condition.summary: cell cycle stage: mitosis
measured.quantity: thermal stability score

MAAAAELSLLEKSLGLSKGNKYSAQGERQIPVLQTNNGPSLTGLTTIAAHLVKQANKEYLLGSTAEEKAIVQQWLEYRVTQVDGHSSKNDIHTLLKDLNSYLEDKVYLTGYNFTLADILLYYGLHRFIVDLTVQEKEKYLNVSRWFCHIQHYPGIRQHLSSVVFIKNRLYTNSH [EEF1E1] : -0.172
MAGPGPGPGDPDEQYDFLFKLVLVGDASVGKTCVVQRFKTGAFSERQGSTIGVDFTMKTLEIQGKRVKLQIWDTAGQERFRTITQSYYRSANGAILAYDITKRSSFLSVPHWIEDVRKYAGSNIVQLLIGNKSDLSELREVSLAEAQSLAEHYDILCAIETSAKDSSNVEEAFLRVATELIMRHGGPLFSEKSPDHIQLNSKDIGEGWGCGC [RAB43] : 0.366
MALKQEMAKSLLKTASLSGRTKLLHQTGLSLYSTSHGFYEEEVKKTLQQFPGGSIDLQKEDNGIGILTLNNPSRMNAFSGVMMLQLLEKVIELENWTEGKGLIVRGAKNTFSSGSDLNAVKSLGTPEDGMAVCMFMQNTLTRFMRLPLISVALVQGWALGGGAEFTTACDFRLMTPESKIRFVHKEMGIIPSWGGTTRLVEIIGSRQALKVLSGALKLDSKNALNIGMVEEVLQSSDETKSLEEAQEWLKQFIQGPPEVIRALKKSVCSGRELYLEEALQNERDLLGTVWGGPANLEAIAKKGKFNK [ECHDC1] : -1.18
MAATLGPLGSWQQWRRCLSARDGSRMLLLLLLLGSGQGPQQVGAGQTFEYLKREHSLSKPYQGVGTGSSSLWNLMGNAMVMTQYIRLTPDMQSKQGALWNRVPCFLRDWELQVHFKIHGQGKKNLHGDGLAIWYTKDRMQPGPVFGNMDKFVGLGVFVDTYPNEEKQQERVFPYISAMVNNGSLSYDHERDGRPTELGGCTAIVRNLHYDTFLVIRYVKRHLTIMMDIDGKHEWRDCIEVPGVRLPRGYYFGTSSITGDLSDNHDVISLKLFELTVERTPEEEKLHRDVFLPSVDNMKLPEMTAPLPPLSGLALFLIVFFSLVFSVFAIVIGIILYNKWQEQSRKRFY [LMAN2L] : -1.27
MALASVLERPLPVNQRGFFGLGGRADLLDLGPGSLSDGLSLAAPGWGVPEEPGIEMLHGTTTLAFKFRHGVIVAADSRATAGAYIASQTVKKVIEINPYLLGTMAGGAADCSFWERLLARQCRIYELRNKERISVAAASKLLANMVYQYKGMGLSMGTMICGWDKRGPGLYYVDSEGNRISGATFSVGSGSVYAYGVMDRGYSYDLEVEQAYDLARRAIYQATYRDAYSGGAVNLYHVREDGWIRVSSDNVADLHEKYSGSTP [PSMB5] : -3.9
MADEIAKAQVARPGGDTIFGKIIRKEIPAKIIFEDDRCLAFHDISPQAPTHFLVIPKKHISQISVAEDDDESLLGHLMIVGKKCAADLGLNKGYRMVVNEGSDGGQSVYHVHLHVLGGRQMHWPPG [HINT1] : -4.12
MAGPELLLDSNIRLWVVLPIVIITFFVGMIRHYVSILLQSDKKLTQEQVSDSQVLIRSRVLRENGKYIPKQSFLTRKYYFNNPEDGFFKKTKRKVVPPSPMTDPTMLTDMMKGNVTNVLPMILIGGWINMTFSGFVTTKVPFPLTLRFKPMLQQGIELLTLDASWVSSASWYFLNVFGLRSIYSLILGQDNAADQSRMMQEQMTGAAMAMPADTNKAFKTEWEALELTDHQWALDDVEEELMAKDLHFEGMFKKELQTSIF [EMC3] : -0.599
MDMKRRIHLELRNRTPAAVRELVLDNCKSNDGKIEGLTAEFVNLEFLSLINVGLISVSNLPKLPKLKKLELSENRIFGGLDMLAEKLPNLTHLNLSGNKLKDISTLEPLKKLECLKSLDLFNCEVTNLNDYRESVFKLLPQLTYLDGYDREDQEAPDSDAEVDGVDEEEEDEEGEDEEDEDDEDGEEEEFDEEDDEDEDVEGDEDDDEVSEEEEEFGLDEEDEDEDEDEEEEEGGKGEKRKRETDDEGEDD [ANP32B] : 3.78
MGQREMWRLMSRFNAFKRTNTILHHLRMSKHTDAAEEVLLEKKGCTGVITLNRPKFLNALTLNMIRQIYPQLKKWEQDPETFLIIIKGAGGKAFCAGGDIRVISEAEKAKQKIAPVFFREEYMLNNAVGSCQKPYVALIHGITMGGGVGLSVHGQFRVATEKCLFAMPETAIGLFPDVGGGYFLPRLQGKLGYFLALTGFRLKGRDVYRAGIATHFVDSEKLAMLEEDLLALKSPSKENIASVLENYHTESKIDRDKSFILEEHMDKINSCFSANTVEEIIENLQQDGSSFALEQLKVINKMSPTSLKITLRQLMEGSSKTLQEVLTMEYRLSQACMRGHDFHEGVRAVLIDKDQSPKWKPADLKEVTEEDLNNHFKSLGSSDLKF [HIBCH] : 0.967
MLPRRLLAAWLAGTRGGGLLALLANQCRFVTGLRVRRAQQIAQLYGRLYSESSRRVLLGRLWRRLHGRPGHASALMAALAGVFVWDEERIQEEELQRSINEMKRLEEMSNMFQSSGVQHHPPEPKAQTEGNEDSEGKEQRWEMVMDKKHFKLWRRPITGTHLYQYRVFGTYTDVTPRQFFNVQLDTEYRKKWDALVIKLEVIERDVVSGSEVLHWVTHFPYPMYSRDYVYVRRYSVDQENNMMVLVSRAVEHPSVPESPEFVRVRSYESQMVIRPHKSFDENGFDYLLTYSDNPQTVFPRYCVSWMVSSGMPDFLEKLHMATLKAKNMEIKVKDYISAKPLEMSSEAKATSQSSERKNEGSCGPARIEYA [STARD7] : -0.89
MALAARLWRLLPFRRGAAPGSRLPAGTSGSRGHCGPCRFRGFEVMGNPGTFKRGLLLSALSYLGFETYQVISQAAVVHATAKVEEILEQADYLYESGETEKLYQLLTQYKESEDAELLWRLARASRDVAQLSRTSEEEKKLLVYEALEYAKRALEKNESSFASHKWYAICLSDVGDYEGIKAKIANAYIIKEHFEKAIELNPKDATSIHLMGIWCYTFAEMPWYQRRIAKMLFATPPSSTYEKALGYFHRAEQVDPNFYSKNLLLLGKTYLKLHNKKLAAFWLMKAKDYPAHTEEDKQIQTEAAQLLTSFSEKN [RMDN1] : -1.17
